Please respond with reported EC50 for every item in the list.
Tgt: GK (glucokinase, residues 12-465) (Homo sapiens)
Construct: I.D. No. 1 corresponds to residues 12-465 of glucokinase
Sequence (P35557 with tags, fused parts or gaps isoform P35557-2): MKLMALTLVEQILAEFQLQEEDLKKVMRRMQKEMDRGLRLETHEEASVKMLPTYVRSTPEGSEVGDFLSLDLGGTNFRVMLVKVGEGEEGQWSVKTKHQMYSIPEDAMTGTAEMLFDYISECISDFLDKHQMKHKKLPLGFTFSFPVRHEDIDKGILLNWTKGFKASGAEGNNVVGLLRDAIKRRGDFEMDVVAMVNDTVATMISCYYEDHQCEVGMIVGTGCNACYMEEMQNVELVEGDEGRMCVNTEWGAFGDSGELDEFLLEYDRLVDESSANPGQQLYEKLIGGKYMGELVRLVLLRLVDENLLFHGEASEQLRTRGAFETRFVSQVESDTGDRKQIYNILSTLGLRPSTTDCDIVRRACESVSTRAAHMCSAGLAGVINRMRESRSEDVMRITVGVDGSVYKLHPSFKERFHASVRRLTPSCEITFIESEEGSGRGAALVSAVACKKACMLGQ
Method Summary: enzymatic glucokinase activity assay (ATP consumption, KinaseGlo luminescence)
Particulars: Kact = concentration that displays 50% of the maximal increase in GK activity; 5 μM ATP, 5 mM Glucose, 60 min, room temperature; reported as bins; read-out: pKact

Some entries whose results are on file:
>>> df
                                   compound   value_measured
0  Cn1ccc(NC(=O)[C@H](CC2CCOCC2)n2ncc3c(S(=O)(=O)C4CC4)cccc32)n1   398 to 1260 nM
1  O=C(Nc1ncc(F)s1)[C@H](CC1CCCC1)n1cc(S(=O)(=O)C2CC2)cn1  1580 to 3160 nM
2  Cn1ccc(NC(=O)C(CC2CCOCC2)n2ncc3c(S(=O)(=O)C4CC4)ccnc32)n1 (stereo not shown)  1580 to 3160 nM

Hello, I would appreciate it if you could give EC50 for each entry below.
1. Cn1ccc(NC(=O)C(CC2CCOCC2)n2ncc3c(S(=O)(=O)C4CC4)c(F)ccc32)n1 (stereo not shown)
2. N#Cc1cnc(NC(=O)C(CC2CCOCC2)n2ncc3c(S(=O)(=O)C4CC4)cccc32)s1 (stereo not shown)
3. O=C(Nc1cnccn1)[C@@H](CC1CCOCC1)n1ncc2c(S(=O)(=O)C3CC3)ccnc21

Result:
1: ≤ 316 nM; 2: 1580 to 3160 nM; 3: ≥ 15800 nM

Problem: Give me measured EC50, please, for this compound: O=C(Nc1cccc(F)n1)C(CC1CCOCC1)n1ncc2c(S(=O)(=O)C3CC3)cccc21 (stereo not shown)
Result: 1580 to 3160 nM
